Assay: amyloid nucleation score (Sup35N fusion, yeast selection) (log enrichment); library NNK1; higher = more nucleation; inactive = no reads after selection;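 also: zero at mode of non-aggregating sequences after 7 days selection at 30°C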
metric: amyloid nucleation score
Respond using a number only.

Recorded results for 2 substances are shown here.
substance	amyloid nucleation score
EIQGPVRT	-0.233
VCIVPIVYPLFKFSVSNDPT	-0.202

Qu. Let me know recorded amyloid nucleation score for KKRPRYRRWTS , thanks.
Ans. 0.578

Qu. Specify measured amyloid nucleation score for SIIYQVRRLCGSYVSILGSQ .
Ans. 0.251

Qu. Determine from records and report amyloid nucleation score for SNFINLGRWFRIDL
Ans. 0.377

###

Test: amyloid nucleation score (Sup35N fusion, yeast selection) (log enrichment); library NNK2; higher = more nucleation; inactive = no reads after selection
metric: amyloid nucleation score
Kindly provide the number alone.

substance	amyloid nucleation score
NRSDPDLCNKC	1.96
SPKTYRRIIGIGQVAVRVCK	0.673

Qu. Provide measured amyloid nucleation score value, entry: RCGFLWCRHFPATSELGCVL
Ans. 0.752

Qu. Give the measured amyloid nucleation score for STLSWSFIYTSIC
Ans. 2.24

Qu. Return reported amyloid nucleation score. Input substance: YVDWAG
Ans. -1.56

Qu. For CFNIQNFELNRVMNLFYCRY , write its amyloid nucleation score.
Ans. 6.37

Qu. Name the recorded amyloid nucleation score of the item CGHVTMHRWGMKNIMLVYAV in your answer.
Ans. -0.889

Qu. Retrieve amyloid nucleation score measured for TAAVILLIVNRDANA and print it.
Ans. 1.94

Qu. State its amyloid nucleation score: GPISVKRYL
Ans. 1.64

Qu. Given the substance IKYNEVVVVRWEANGRFE , write its reported amyloid nucleation score.
Ans. 4

Qu. Output amyloid nucleation score of ILYKYETLMLFLSSEYNVIC
Ans. 3.9

Qu. Quickly give me recorded amyloid nucleation score for ICSPFVFGFCGTNFRRVLHR
Ans. 6.98

Qu. Entry FHYRFFVVMIRGCSFWHFQL needs its amyloid nucleation score filled in; supply it.
Ans. -1.57

Qu. Given ISAETPMIAFCLVPLNPRSV , respond with its amyloid nucleation score.
Ans. 1.06

Cited source for all entries: the supplement of paper PMC12042874
